EXPERIMENTAL SYSTEM: DNA topoisomerase 2-alpha (Homo sapiens) (UniProt P11388)
Sequence (P11388 whole entry): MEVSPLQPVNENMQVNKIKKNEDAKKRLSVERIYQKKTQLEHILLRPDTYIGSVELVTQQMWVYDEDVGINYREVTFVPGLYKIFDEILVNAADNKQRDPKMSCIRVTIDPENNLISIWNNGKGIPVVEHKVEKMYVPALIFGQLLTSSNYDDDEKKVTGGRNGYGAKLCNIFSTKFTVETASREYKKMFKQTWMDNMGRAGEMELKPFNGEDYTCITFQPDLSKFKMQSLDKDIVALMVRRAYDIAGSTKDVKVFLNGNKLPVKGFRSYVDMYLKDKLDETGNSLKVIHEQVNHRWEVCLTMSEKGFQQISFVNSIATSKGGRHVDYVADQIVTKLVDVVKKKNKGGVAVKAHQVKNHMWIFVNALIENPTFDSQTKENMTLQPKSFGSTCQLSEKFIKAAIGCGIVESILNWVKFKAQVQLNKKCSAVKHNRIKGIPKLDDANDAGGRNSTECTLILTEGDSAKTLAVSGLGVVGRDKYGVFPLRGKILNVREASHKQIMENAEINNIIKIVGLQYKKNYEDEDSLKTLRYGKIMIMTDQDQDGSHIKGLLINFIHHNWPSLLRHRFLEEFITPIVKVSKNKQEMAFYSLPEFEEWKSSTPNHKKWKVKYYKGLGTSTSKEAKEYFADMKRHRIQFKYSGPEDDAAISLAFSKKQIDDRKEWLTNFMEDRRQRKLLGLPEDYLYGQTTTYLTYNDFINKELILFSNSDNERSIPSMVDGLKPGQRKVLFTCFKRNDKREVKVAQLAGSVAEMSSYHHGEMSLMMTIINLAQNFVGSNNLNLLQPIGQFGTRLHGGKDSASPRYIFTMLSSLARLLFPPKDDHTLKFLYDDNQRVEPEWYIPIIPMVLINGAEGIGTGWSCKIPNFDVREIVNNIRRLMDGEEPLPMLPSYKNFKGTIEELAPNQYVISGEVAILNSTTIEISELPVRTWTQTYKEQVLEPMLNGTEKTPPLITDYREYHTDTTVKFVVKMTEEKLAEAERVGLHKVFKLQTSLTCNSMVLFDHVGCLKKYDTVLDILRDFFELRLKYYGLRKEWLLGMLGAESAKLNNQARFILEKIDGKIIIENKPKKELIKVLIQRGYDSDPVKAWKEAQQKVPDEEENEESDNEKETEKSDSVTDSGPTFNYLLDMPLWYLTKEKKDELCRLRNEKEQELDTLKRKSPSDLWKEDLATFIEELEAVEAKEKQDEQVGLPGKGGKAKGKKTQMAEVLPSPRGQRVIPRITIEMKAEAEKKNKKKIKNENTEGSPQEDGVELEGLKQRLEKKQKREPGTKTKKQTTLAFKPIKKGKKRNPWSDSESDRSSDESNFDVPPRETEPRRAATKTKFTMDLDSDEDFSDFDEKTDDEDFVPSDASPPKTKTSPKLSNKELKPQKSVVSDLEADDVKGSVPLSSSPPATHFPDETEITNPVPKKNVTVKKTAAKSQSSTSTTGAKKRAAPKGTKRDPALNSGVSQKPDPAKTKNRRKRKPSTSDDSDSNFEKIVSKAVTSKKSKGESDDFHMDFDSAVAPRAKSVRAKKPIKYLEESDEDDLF
EXPERIMENT DESCRIPTION: Inhibition of recombinant human topoisomerase 2alpha assessed as relaxation of supercoiled plasmid pBR322 DNA at 100 uM by agarose gel electrophoresis (reference value: 84.9%)
EXPERIMENTAL READOUT: inhibition (%)
Please give a number only; it is taken to be in %.

MOLECULE | EXPERIMENTAL SYSTEM | UNIT SPEC | inhibition
OC1c2ccccc2-c2nc(-c3cccc(OC(F)(F)F)c3)cc(-c3ccccc3)c21 (stereo unspecified) | DNA topoisomerase 2-alpha (Homo sapiens) (UniProt P11388) | % | 66.7
OC1c2ccccc2-c2nc(-c3ccccc3OC(F)(F)F)cc(-c3ccccc3)c21 (stereo unspecified) | DNA topoisomerase 2-alpha (Homo sapiens) (UniProt P11388) | % | 86
OC1c2ccccc2-c2nc(-c3ccc(OC(F)(F)F)cc3)cc(-c3ccccc3)c21 (stereo unspecified) | DNA topoisomerase 2-alpha (Homo sapiens) (UniProt P11388) | % | 61.2
OC1c2ccccc2-c2nc(-c3ccc(C(F)(F)F)cc3)cc(-c3ccccc3)c21 (stereo unspecified) | DNA topoisomerase 2-alpha (Homo sapiens) (UniProt P11388) | % | 51.2
OC1c2ccccc2-c2nc(-c3ccccc3C(F)(F)F)cc(-c3ccccc3)c21 (stereo unspecified) | DNA topoisomerase 2-alpha (Homo sapiens) (UniProt P11388) | % | 52.2

Could you now consider this next molecule?
Prompt: Identify inhibition associated with the molecule OC1c2ccccc2-c2nc(-c3cccc(C(F)(F)F)c3)cc(-c3ccccc3)c21 (stereo unspecified)
Completion: 57.3

---

EXPERIMENTAL SYSTEM: DNA topoisomerase 1 (Homo sapiens) (UniProt P11387)
Sequence (P11387 whole entry): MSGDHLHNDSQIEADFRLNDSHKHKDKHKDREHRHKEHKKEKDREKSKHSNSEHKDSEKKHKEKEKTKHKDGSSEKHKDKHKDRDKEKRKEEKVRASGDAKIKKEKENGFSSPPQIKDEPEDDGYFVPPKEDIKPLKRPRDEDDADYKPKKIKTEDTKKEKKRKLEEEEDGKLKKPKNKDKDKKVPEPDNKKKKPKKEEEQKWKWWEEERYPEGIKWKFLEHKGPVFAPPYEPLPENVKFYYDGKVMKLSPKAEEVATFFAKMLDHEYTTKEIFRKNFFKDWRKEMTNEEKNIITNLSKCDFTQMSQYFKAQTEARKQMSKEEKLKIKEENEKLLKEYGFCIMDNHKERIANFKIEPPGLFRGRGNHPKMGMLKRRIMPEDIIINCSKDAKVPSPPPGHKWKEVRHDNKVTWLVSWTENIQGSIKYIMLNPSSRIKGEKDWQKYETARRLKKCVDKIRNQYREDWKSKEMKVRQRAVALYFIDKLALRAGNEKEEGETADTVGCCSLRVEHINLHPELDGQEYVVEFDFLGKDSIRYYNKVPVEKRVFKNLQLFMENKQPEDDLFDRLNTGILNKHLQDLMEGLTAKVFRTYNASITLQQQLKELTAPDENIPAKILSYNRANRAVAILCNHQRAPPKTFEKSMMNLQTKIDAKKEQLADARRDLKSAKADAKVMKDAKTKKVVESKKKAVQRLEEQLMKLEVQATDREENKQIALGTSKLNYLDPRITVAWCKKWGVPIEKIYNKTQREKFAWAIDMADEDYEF
EXPERIMENT DESCRIPTION: Inhibition of recombinant human topoisomerase 1 assessed as relaxation of supercoiled plasmid pBR322 DNA at 100 uM by agarose gel electrophoresis (reference value: 83.2%)
EXPERIMENTAL READOUT: inhibition

SMILES CODE | EXPERIMENTAL READOUT | OBSERVED VALUE
O=C1c2ccccc2-c2nc(-c3cccc(F)c3)cc(-c3ccccc3)c21 | inhibition | 34.2%
O=C1c2ccccc2-c2nc(-c3cccc(Br)c3)cc(-c3ccccc3)c21 | inhibition | 82.9%
O=C1c2ccccc2-c2nc(-c3ccccc3Br)cc(-c3ccccc3)c21 | inhibition | 82.9%
O=C1c2ccccc2-c2nc(-c3ccccc3Cl)cc(-c3ccccc3)c21 | inhibition | 66.7%
O=C1c2ccccc2-c2nc(-c3cccc(Cl)c3)cc(-c3ccccc3)c21 | inhibition | 85.7%
O=C1c2ccccc2-c2nc(-c3ccccc3F)cc(-c3ccccc3)c21 | inhibition | 26.7%
O=C1c2ccccc2-c2nc(-c3ccc(F)cc3)cc(-c3ccccc3)c21 | inhibition | 34.7%
O=C1c2ccccc2-c2nc(-c3ccc(Cl)cc3)cc(-c3ccccc3)c21 | inhibition | 80.4%

Prompt: Identify inhibition associated with the molecule O=C1c2ccccc2-c2nc(-c3ccc(Br)cc3)cc(-c3ccccc3)c21
Completion: 87%

---

System: HCT-15
EXPERIMENT DESCRIPTION: Antiproliferative activity against human HCT-15 cells after 72 hrs by EZ-Cytox colorimetric assay
Type: functional, cell-based
CONDITION CONTEXT: HCT-15, 72 h
Counter-ions that a name gives are not always drawn.
Measured pIC50, listed per entry for reference.
The meaning of pIC50 here: minus log10 of the concentration in molar units.

Here's what some known entries look like.
COMPOUND | OBSERVED VALUE
O=C1c2ccccc2-c2nc(-c3ccccc3F)cc(-c3ccccc3)c21 | 4.31
OC1c2ccccc2-c2nc(-c3ccccc3OC(F)(F)F)cc(-c3ccccc3)c21 (stereo not drawn) | 5.13
O=C1c2ccccc2-c2nc(-c3cccc(OC(F)(F)F)c3)cc(-c3ccccc3)c21 | 4.56
O=C1c2ccccc2-c2nc(-c3ccc(Br)cc3)cc(-c3ccccc3)c21 | 5.11

Prompt: Identify pIC50 associated with the compound COc1cccc2c1C(=O)c1c(O)c3c(c(O)c1C2=O)C[C@@](O)(C(=O)CO)C[C@@H]3O[C@H]1C[C@H](N)[C@H](O)[C@H](C)O1 [DOXORUBICIN HYDROCHLORIDE]
Completion: 3.87

Prompt: Identify pIC50 associated with the compound O=C1c2ccccc2-c2nc(-c3ccc(OC(F)(F)F)cc3)cc(-c3ccccc3)c21
Completion: 5.01

Prompt: Identify pIC50 associated with the compound OC1c2ccccc2-c2nc(-c3ccccc3Cl)cc(-c3ccccc3)c21 (stereo not drawn)
Completion: 5.47

Prompt: Identify pIC50 associated with the compound COc1cc([C@@H]2c3cc4c(cc3[C@@H](O[C@@H]3O[C@@H]5CO[C@@H](C)O[C@H]5[C@H](O)[C@H]3O)[C@H]3COC(=O)[C@H]23)OCO4)cc(OC)c1O [ETOPOSIDE]
Completion: 5.62
